target: MCT4 (Homo sapiens, UniProt O15427); assay: Assay (a): lactate efflux from SK-Br-3 cells (lactate in media, 4 h); assay type: cell-based; parameters: a natively glycolytic human breast adenocarcinoma line predominantly expressing MCT4; host or cells: SK-Br-3; details: mean of at least three repeats (Example 32, marked *, two repeats), read-out: MCT4 lactate efflux pIC50 (SKBR3) (converted)
Some molecules, each annotated with its measured IC50.
quantity.kind: IC50 (nM)

1. Cc1nc2nc(C)c(C[C@@H]3CCN(c4ccc(-c5ccc(CN6CCN(C)CC6)nc5)cn4)C3)c(C)n2n1 ... 0.631
2. Cc1nc2nc(C)c(C[C@@H]3CCN(c4cnc(-c5ccc(CN6CCN(C)CC6)cc5C)nc4)C3)c(C)n2n1 ... 2.51
3. COCCN1CCN(Cc2ccc(-c3cnc(N4CC[C@@H](Cc5c(C)nc6nc(C)nn6c5C)C4)cn3)cc2)CC1 ... 0.794
4. Cc1nc2nc(C)c(O[C@@H]3CCN(c4cnc(-c5ccc(CN6CCN(C)CC6)cc5)nc4)C3)c(C)n2n1 ... 2

---

biological target: MCT4 (Homo sapiens); assay: Assay (a): lactate efflux from SK-Br-3 cells (lactate in media, 4 h); type: cell-based; parameters: a natively glycolytic human breast adenocarcinoma line predominantly expressing MCT4; host or cells: SK-Br-3; details: mean of at least three repeats (Example 32, marked *, two repeats), read-out: MCT4 lactate efflux pIC50 (SKBR3) (converted)
Please use Satisfied for IC50 under 0.4 nM and Not satisfied for everything else, ties included.

1) Cc1nc2nc(C)c(C[C@@H]3CCN(c4ccc(-c5cnc(CN6CCN(C)CC6)nc5)cc4)C3)c(C)n2n1 [Example 22] ... Not satisfied
2) Cc1nc2nc(C)c(C[C@@H]3CCN(c4cnc(-c5ccc(CN6CCN(S(C)(=O)=O)CC6)cc5)cn4)C3)c(C)n2n1 [Example 52] ... Satisfied
3) Cc1nc2nc(C)c(C[C@@H]3CCN(c4cnc(-c5ccc(CN6CCN(C)CC6)c(C)c5)cn4)C3)c(C)n2n1 [Example 56] ... Not satisfied
4) Cc1nc2nc(C)c(C[C@@H]3CCN(c4ccc(-c5ccc(CN6CCOCC6)cc5)nn4)C3)c(C)n2n1 [Example 61] ... Not satisfied
5) Cc1nc2nc(C)c(O[C@@H]3CCN(c4cnc(-c5ccc(CN6CCOCC6)cc5)cn4)C3)c(C)n2n1 [Example 78] ... Not satisfied
6) Cc1nc2nc(C)c(O[C@@H]3CCN(c4ccc(-c5ccc(CN6CCOCC6)cn5)cn4)C3)c(C)n2n1 [Example 74] ... Not satisfied
7) Cc1nc2nc(C)c(C[C@@H]3CCN(c4cnc(-c5ccc(CN6CCN(C)C[C@@H]6C)cc5)cn4)C3)c(C)n2n1 [Example 50] ... Not satisfied
8) CCN1CCN(Cc2ccc(-c3ccc(N4CC[C@@H](Oc5c(C)nc6nc(C)nn6c5C)C4)cc3)nn2)CC1 [Example 72] ... Not satisfied
9) Cc1nc2nc(C)c(C[C@@H]3CCN(c4cnc(-c5ccc(CN6CCC(S(C)(=O)=O)CC6)cc5)cn4)C3)c(C)n2n1 [Example 46] ... Satisfied
10) CC(=O)N1CCCN(Cc2ccc(-c3cnc(N4CC[C@@H](Cc5c(C)nc6nc(C)nn6c5C)C4)cn3)cc2)CC1 [Example 79] ... Satisfied
11) Cc1nc2nc(C)c(C[C@@H]3CCN(c4cnc(-c5ccc(CN6CCN(C(=O)N(C)C)CC6)cc5)cn4)C3)c(C)n2n1 [Example 55] ... Satisfied
12) Cc1nc2nc(C)c(C[C@@H]3CCN(c4cnc(-c5ccc(CN6C[C@@H](C)N[C@@H](C)C6)cc5)cn4)C3)c(C)n2n1 [Example 40] ... Not satisfied
13) Cc1nc2nc(C)c(C[C@@H]3CCN(c4cnc(-c5ccc(CN6CCN(C)[C@H](C)C6)cc5)cn4)C3)c(C)n2n1 [Example 33] ... Not satisfied

---

target: MCT4 (Homo sapiens, UniProt O15427); test: Assay (a): lactate efflux from SK-Br-3 cells (lactate in media, 4 h); type: cell-based; design: a natively glycolytic human breast adenocarcinoma line predominantly expressing MCT4; host or cells: SK-Br-3; settings: mean of at least three repeats (Example 32, marked *, two repeats), read-out: MCT4 lactate efflux pIC50 (SKBR3) (converted)
Please use 1.0 for IC50 under 1 nM and 0.0 for everything else, ties included.

1) Cc1nc2nc(C)c(C[C@@H]3CCN(c4cnc(-c5ccc(CN6CCOCC6)cc5)cn4)C3)c(C)n2n1 [Example 60] ... 1.0
2) COc1cc(CN2CCN(C)CC2)ccc1-c1ncc(N2CC[C@@H](Cc3c(C)nc4nc(C)nn4c3C)C2)nc1C [Example 31] ... 0.0
3) COc1cc(CN2CCN(C)CC2)ccc1-c1cnc(N2CC[C@@H](Cc3c(C)nc4nc(C)nn4c3C)C2)cn1 [Example 43] ... 1.0
4) Cc1nc2nc(C)c(C[C@@H]3CCN(c4cnc(-c5ccc(CN6CCS(=O)(=O)CC6)cc5)cn4)C3)c(C)n2n1 [Example 45] ... 1.0
5) COc1cc(CN2CCN(C)CC2)ccc1-c1ncc(N2CC[C@@H](Cc3c(C)nc4nc(C)nn4c3C)C2)cn1 [Example 12] ... 0.0
6) Cc1nc2nc(C)c(O[C@@H]3CCN(c4ccc(-c5ccc(CN6CCN7CCC[C@@H]7C6)nn5)cc4)C3)c(C)n2n1 [Example 67] ... 0.0

---

Some compounds, each annotated with its measured IC50.
molecular target: MCT4 (Homo sapiens, UniProt O15427); test: Assay (a): lactate efflux from SK-Br-3 cells (lactate in media, 4 h); type: cell-based; set-up: a natively glycolytic human breast adenocarcinoma line predominantly expressing MCT4; host or cells: SK-Br-3; conditions: mean of at least three repeats (Example 32, marked *, two repeats), read-out: MCT4 lactate efflux pIC50 (SKBR3) (converted)
quantity.kind: IC50 (nM)

1) Cc1nc2nc(C)c(O[C@@H]3CCN(c4cnc(-c5ccc(C(C)N6CCOCC6)cc5)cn4)C3)c(C)n2n1 (single isomer, unassigned) ... 1.26
2) Cc1nc2nc(C)c(C[C@@H]3CCN(c4ncc(-c5ccc(CN6CCOCC6)cc5)cn4)C3)c(C)n2n1 ... 0.631
3) Cc1nc2nc(C)c(C[C@@H]3CCN(c4cnc(-c5ccc(CN6CCN(CCO)CC6)cc5)cn4)C3)c(C)n2n1 ... 0.794

---

Target: MCT4 (Homo sapiens, UniProt O15427)
Sequence (O15427 1-465): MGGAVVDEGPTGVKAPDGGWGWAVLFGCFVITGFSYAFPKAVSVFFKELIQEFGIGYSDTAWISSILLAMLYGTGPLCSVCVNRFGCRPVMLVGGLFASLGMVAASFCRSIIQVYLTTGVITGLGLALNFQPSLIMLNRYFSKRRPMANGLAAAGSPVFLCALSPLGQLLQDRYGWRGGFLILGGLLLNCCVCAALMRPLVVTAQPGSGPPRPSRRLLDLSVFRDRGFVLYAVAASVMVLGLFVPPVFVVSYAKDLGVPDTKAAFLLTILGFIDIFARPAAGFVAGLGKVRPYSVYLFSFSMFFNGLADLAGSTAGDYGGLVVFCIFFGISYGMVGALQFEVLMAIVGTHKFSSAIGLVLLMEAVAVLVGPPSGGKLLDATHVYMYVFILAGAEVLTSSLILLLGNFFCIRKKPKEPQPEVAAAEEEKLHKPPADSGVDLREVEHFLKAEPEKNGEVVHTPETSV
Assay: cell-based
Please use yes (1) for IC50 under 20 nM and no (0) for everything else, ties included.

1) Cc1nc2nc(C)c(C[C@@H]3CCN(c4cnc(-c5ccc(CN6C[C@@H](C)N[C@@H](C)C6)cc5)cn4)C3)c(C)n2n1 ... no (0)
2) COc1cc(CN2CCN(C)CC2)ccc1-c1ncc(N2CC[C@@H](Cc3c(C)nc4nc(C)nn4c3C)C2)nc1C ... no (0)
3) Cc1nc2nc(C)c(C[C@@H]3CCN(c4cnc(-c5ccc(CN6CCN(C)CC6)cc5)c(C)n4)C3)c(C)n2n1 ... yes (1)
4) Cc1nc2nc(C)c(C[C@@H]3CCN(c4cnc(-c5ccc(CN6CCN(C(=O)N(C)C)CC6)cc5)cn4)C3)c(C)n2n1 ... yes (1)
5) Cc1nc2nc(C)c(O[C@@H]3CCN(c4ccc(-c5ccc(CN6CCOCC6)nc5)cn4)C3)c(C)n2n1 ... yes (1)
6) Cc1nc2nc(C)c(C[C@@H]3CCN(c4cnc(-c5ccc(CN6CCN(C)C[C@H]6C)cc5)cn4)C3)c(C)n2n1 ... no (0)
7) Cc1nc2nc(C)c(O[C@@H]3CCN(c4cnc(-c5ccc(C(C)N6CCOCC6)cc5)cn4)C3)c(C)n2n1 (single isomer, unassigned) ... yes (1)
8) Cc1nc2nc(C)c(C[C@@H]3CCN(c4ccc(-c5ccc(CN6CCOCC6)cn5)cc4)C3)c(C)n2n1 ... yes (1)
9) Cc1nc2nc(C)c(O[C@@H]3CCN(c4ccc(-c5ccc(CN6CCN7CCC[C@H]7C6)nn5)cc4)C3)c(C)n2n1 ... no (0)
10) Cc1nc2nc(C)c(C[C@@H]3CCN(c4ncc(-c5ccc(CN6CCOCC6)cc5)cn4)C3)c(C)n2n1 ... yes (1)
11) CCN1CCN(Cc2ccc(-c3ccc(N4CC[C@@H](Oc5c(C)nc6nc(C)nn6c5C)C4)cc3)nn2)CC1 ... no (0)
12) Cc1nc2nc(C)c(C[C@@H]3CCN(c4cnc(-c5ccc(CN6CCCC6)nc5)cn4)C3)c(C)n2n1 ... yes (1)
13) Cc1nc2nc(C)c(C[C@@H]3CCN(c4cnc(-c5ccc(CN6CCCC6)cn5)cn4)C3)c(C)n2n1 ... yes (1)
14) Cc1nc2nc(C)c(C[C@@H]3CCN(c4cnc(-c5ccc(CN6CCN(S(C)(=O)=O)CC6)cc5)cn4)C3)c(C)n2n1 ... yes (1)
15) Cc1nc2nc(C)c(C[C@@H]3CCN(c4cnc(-c5ccc(CN6C[C@@H](C)N(C)C[C@H]6C)cc5)cn4)C3)c(C)n2n1 ... yes (1)
16) Cc1nc2nc(C)c(C[C@@H]3CCN(c4cnc(-c5ccc(CN6CCN(C)[C@@H](C)C6)cc5)cn4)C3)c(C)n2n1 ... yes (1)
17) CC(=O)N1CCN(Cc2ccc(-c3cnc(N4CC[C@@H](Cc5c(C)nc6nc(C)nn6c5C)C4)cn3)cc2)CC1 ... yes (1)
18) Cc1nc2nc(C)c(C[C@@H]3CCN(c4cnc(-c5ccc(CN6CCN(C)C[C@@H]6C)cc5)cn4)C3)c(C)n2n1 ... yes (1)
19) Cc1nc2nc(C)c(O[C@@H]3CCN(c4ccc(-c5cnc(CN6CCOCC6)cn5)cc4)C3)c(C)n2n1 ... yes (1)
20) Cc1nc2nc(C)c(C[C@@H]3CCN(c4cnc(-c5ccc(CN6CCOCC6)cc5)nc4)C3)c(C)n2n1 ... yes (1)
21) Cc1nc2nc(C)c(C[C@@H]3CCN(c4ccc(-c5ccc(CN6CCN(C)CC6)cc5)cn4)C3)c(C)n2n1 ... yes (1)
22) Cc1nc2nc(C)c(C[C@@H]3CCN(c4cnc(-c5ccc(CN6CCCCC6)cc5)cn4)C3)c(C)n2n1 ... yes (1)
23) Cc1nc2nc(C)c(O[C@@H]3CCN(c4ccc(-c5ccc(CN6CCCOCC6)nn5)cc4)C3)c(C)n2n1 ... yes (1)
24) Cc1nc2nc(C)c(O[C@@H]3CCN(c4ccc(-c5ccc(CN6CCCCC6)nn5)cc4)C3)c(C)n2n1 ... no (0)
25) COCCN1CCN(Cc2ccc(-c3cnc(N4CC[C@@H](Cc5c(C)nc6nc(C)nn6c5C)C4)cn3)cc2)CC1 ... yes (1)

Values were extracted from patent US12503473B2.
